# TESTED_SYSTEM: cloned human NET (Homo sapiens)
# Sequence (P23975 whole entry): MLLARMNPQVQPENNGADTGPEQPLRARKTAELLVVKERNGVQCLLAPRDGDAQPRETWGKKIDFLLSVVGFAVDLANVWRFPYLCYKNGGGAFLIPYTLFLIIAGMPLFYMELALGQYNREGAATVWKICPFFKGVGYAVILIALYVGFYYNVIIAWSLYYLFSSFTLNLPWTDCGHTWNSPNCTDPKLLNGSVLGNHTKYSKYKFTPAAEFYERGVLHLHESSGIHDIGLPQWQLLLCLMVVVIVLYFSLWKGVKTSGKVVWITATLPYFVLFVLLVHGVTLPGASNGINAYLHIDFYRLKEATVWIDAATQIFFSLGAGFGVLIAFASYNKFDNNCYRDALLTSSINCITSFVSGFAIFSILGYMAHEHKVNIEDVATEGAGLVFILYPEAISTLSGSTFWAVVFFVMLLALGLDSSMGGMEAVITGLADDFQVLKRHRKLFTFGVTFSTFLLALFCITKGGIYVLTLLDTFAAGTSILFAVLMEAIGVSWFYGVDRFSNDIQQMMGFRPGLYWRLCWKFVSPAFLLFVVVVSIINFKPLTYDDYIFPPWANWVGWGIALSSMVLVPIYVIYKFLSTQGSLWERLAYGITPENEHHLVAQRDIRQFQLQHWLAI
PARAMETER: Ki

>  <COMPOUND_STRUCTURE>
Nc1nc2ccc(CN[C@@H]3CO[C@H](C(c4ccc(F)cc4)c4ccc(F)cc4)C[C@H]3O)cc2s1

>  <PARAMETER>
Ki

>  <OBS_VALUE>
6.1 nM

$$$$

---

# TESTED_SYSTEM: 5HT2c (Homo sapiens)
# Sequence (P28335 33-458): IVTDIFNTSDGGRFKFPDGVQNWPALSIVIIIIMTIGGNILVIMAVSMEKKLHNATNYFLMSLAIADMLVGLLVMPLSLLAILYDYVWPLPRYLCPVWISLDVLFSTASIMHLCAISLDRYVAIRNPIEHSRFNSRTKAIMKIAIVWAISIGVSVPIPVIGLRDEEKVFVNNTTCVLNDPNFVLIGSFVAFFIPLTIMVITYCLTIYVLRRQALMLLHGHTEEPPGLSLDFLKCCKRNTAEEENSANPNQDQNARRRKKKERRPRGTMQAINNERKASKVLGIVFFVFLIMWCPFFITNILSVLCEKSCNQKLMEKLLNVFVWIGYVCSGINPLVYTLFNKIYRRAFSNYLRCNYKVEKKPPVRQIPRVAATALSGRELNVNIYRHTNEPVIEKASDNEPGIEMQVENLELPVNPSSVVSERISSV
pKi: −log10 of the molar value.

>  <MOLECULE>
Nc1nc2ccc(CN[C@@H]3CO[C@H](C(c4ccc(F)cc4)c4ccc(F)cc4)C[C@H]3O)cc2s1 [D-578]

>  <pKi>
7.14

$$$$
